The reported numbers originate from the supplement of paper PMC7877785.

Reported self-splicing fitness (ln) values are given for each entry in this list.
- experiment_description: self-splicing fitness, log relative to wild type (ln ratio); higher = more splicing; Tetrahymena group I intron in knt gene, E. coli kanamycin selection, DiMSum; sequences stand for … in CUCUCU…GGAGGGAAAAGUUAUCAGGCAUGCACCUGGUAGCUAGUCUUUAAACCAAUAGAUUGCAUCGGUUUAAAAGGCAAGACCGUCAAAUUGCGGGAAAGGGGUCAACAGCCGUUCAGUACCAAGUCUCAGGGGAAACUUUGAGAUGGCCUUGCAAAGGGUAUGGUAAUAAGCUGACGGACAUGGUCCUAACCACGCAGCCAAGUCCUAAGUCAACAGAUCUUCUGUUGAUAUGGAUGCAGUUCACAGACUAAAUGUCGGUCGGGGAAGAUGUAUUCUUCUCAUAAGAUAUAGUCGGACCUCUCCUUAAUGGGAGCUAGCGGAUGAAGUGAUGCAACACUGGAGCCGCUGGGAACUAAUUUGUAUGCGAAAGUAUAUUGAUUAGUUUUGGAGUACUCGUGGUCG;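 further: selection with 25 µg/mL kanamycin versus none on LB agar overnight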
- experimental_conditions: 37 °C

| record_sequence | self-splicing fitness (ln) |
| --- | --- |
| GCGUAGCAAUAUUACGAUAC | -0.893 |
| GGCGAGCAAUAUUACGAACU | 0.292 |
| GGCAAGCAAUAUUACGGCCU | 0.111 |
| CCAUAGCAAUAUUACGUGCA | -3.02 |
| AAACAGCAAUAUUACGCCCU | 0.201 |
| UACAAGCAAUAUUACGUCUG | 0.299 |
| AUGAAGCAAUAUUACGCAGA | -0.868 |
| AAACAGCAAUAUUACGGUAU | -1.58 |
| GCCGAGCAAUAUUACGCUGC | -2.81 |
| UGUGAGCAAUAUUACGUACA | -0.41 |
| ACUUAGCAAUAUUACGGGUC | -3.27 |
| UAGGAGCAAUAUUACGUUAC | -2.08 |
| GGAUAGCAAUAUUACGAUGU | -0.0369 |
| GGGCAGCAAUAUUACGGCCA | 0.258 |
| GGCCAGCAAUAUUACGGGCA | -0.314 |
| AGUGAGCAAUAUUACGGCGG | -2.29 |

###

- experiment_description: self-splicing fitness, log relative to wild type (ln ratio); higher = more splicing; Tetrahymena group I intron in knt gene, E. coli kanamycin selection, DiMSum; sequences stand for … in CUCUCU…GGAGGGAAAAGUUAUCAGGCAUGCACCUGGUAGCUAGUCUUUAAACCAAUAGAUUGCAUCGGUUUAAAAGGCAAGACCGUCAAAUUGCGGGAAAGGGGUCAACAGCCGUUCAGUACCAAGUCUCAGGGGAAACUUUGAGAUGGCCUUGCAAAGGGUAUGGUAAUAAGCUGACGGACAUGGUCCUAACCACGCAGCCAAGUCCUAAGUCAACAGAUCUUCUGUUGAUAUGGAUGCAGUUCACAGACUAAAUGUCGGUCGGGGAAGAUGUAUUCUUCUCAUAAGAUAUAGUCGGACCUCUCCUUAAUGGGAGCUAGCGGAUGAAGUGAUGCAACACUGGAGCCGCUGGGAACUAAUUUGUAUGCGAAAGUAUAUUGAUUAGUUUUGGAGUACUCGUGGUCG
- experimental_conditions: 37 °C
quantity_kind: self-splicing fitness (ln)

| record_sequence | numeric_readout |
| --- | --- |
| GAGUAGCAAUAUUACGCACA | -0.0514 |
| GCAUAGCAAUAUUACGCGUU | -2.14 |
| CAUGAGCAAUAUUACGCCGC | -2.71 |
| CGAAAGCAAUAUUACGCAUG | -0.368 |
| AUCAAGCAAUAUUACGUCGC | -2.65 |
| ACAGAGCAAUAUUACGAACG | -1.45 |
| AAUGAGCAAUAUUACGUCAG | -2.32 |
| GUCCAGCAAUAUUACGUACG | -1.14 |
| UUUGAGCAAUAUUACGGUGC | -2.2 |
| CACAAGCAAUAUUACGCCUU | -1.34 |
| UUUCAGCAAUAUUACGAUAC | -2.02 |
| ACUCAGCAAUAUUACGUACA | -0.876 |
| CCAAAGCAAUAUUACGUGAA | -3.18 |
| UCGCAGCAAUAUUACGAAGG | -0.846 |
| UGAUAGCAAUAUUACGGCAC | -1.51 |
| GAAAAGCAAUAUUACGGUAU | -1.69 |

###

Reported self-splicing fitness (ln) values are given for each entry in this list.
- experiment_description: self-splicing fitness, log relative to wild type (ln ratio); higher = more splicing; Tetrahymena group I intron in knt gene, E. coli kanamycin selection, DiMSum; sequences stand for … in CUCUCU…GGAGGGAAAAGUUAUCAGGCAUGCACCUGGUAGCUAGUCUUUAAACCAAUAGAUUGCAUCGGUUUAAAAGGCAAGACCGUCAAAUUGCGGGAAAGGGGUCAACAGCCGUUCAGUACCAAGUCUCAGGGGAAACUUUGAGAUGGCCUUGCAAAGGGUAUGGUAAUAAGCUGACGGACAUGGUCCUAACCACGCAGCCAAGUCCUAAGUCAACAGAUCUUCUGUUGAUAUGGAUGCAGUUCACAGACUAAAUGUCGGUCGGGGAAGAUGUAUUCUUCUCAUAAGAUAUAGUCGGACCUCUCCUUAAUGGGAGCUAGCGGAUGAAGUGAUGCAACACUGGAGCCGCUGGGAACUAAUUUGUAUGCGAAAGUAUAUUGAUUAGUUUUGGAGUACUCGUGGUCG
- experimental_conditions: 30 °C
quantity_kind: self-splicing fitness (ln)

| record_sequence | numeric_readout |
| --- | --- |
| ACGUAGCAAUAUUACGGUCG | -1.23 |
| AGCCAGCAAUAUUACGGCUA | -2.42 |
| ACGGAGCAAUAUUACGCAUG | -2.65 |
| CCCAAGCAAUAUUACGGUGC | -3.6 |
| CGAAAGCAAUAUUACGUUGG | -1.66 |
| GGCCAGCAAUAUUACGGGUA | -0.772 |
| CAGCAGCAAUAUUACGAUGG | -0.264 |
| CUGGAGCAAUAUUACGAUUA | -2.56 |
| CGGUAGCAAUAUUACGAGCG | -0.978 |
| CGGGAGCAAUAUUACGUUGG | -3.83 |
| GGGCAGCAAUAUUACGGUUG | -1.94 |
| AGUAAGCAAUAUUACGGUAA | -2.63 |
| CACUAGCAAUAUUACGAGUA | -1.34 |
| CUAUAGCAAUAUUACGUUAU | -3.27 |
| GUUCAGCAAUAUUACGUUAG | -1.3 |
| UAGCAGCAAUAUUACGGAGC | -2.95 |
| GCACAGCAAUAUUACGGCUU | -0.432 |
| AUACAGCAAUAUUACGAAAU | -1.44 |
| CGUAAGCAAUAUUACGUACU | -0.922 |
| CAUAAGCAAUAUUACGAACU | -2.47 |
| AGCAAGCAAUAUUACGGAAA | -3.46 |
| CCGUAGCAAUAUUACGUAGU | -3.13 |
| AACUAGCAAUAUUACGUGGC | -3.72 |
| UUUCAGCAAUAUUACGAUGC | -3.68 |
| AACGAGCAAUAUUACGGUGA | -3.07 |
| AAAGAGCAAUAUUACGAGUC | -3.41 |
| UGCUAGCAAUAUUACGGGGC | -3.59 |
| ACAAAGCAAUAUUACGUAUA | -2.79 |
| AUCUAGCAAUAUUACGCACU | -1.42 |
| ACUUAGCAAUAUUACGUCUA | -1.67 |
| AUUGAGCAAUAUUACGGGCU | -4.12 |
| CUCGAGCAAUAUUACGCUGA | -2.4 |
| CCUAAGCAAUAUUACGUAAU | -2.38 |
| ACUGAGCAAUAUUACGCUGA | -2.19 |
| GAUAAGCAAUAUUACGAACG | -1.22 |
| AGUUAGCAAUAUUACGGAUU | -1.32 |
| ACUUAGCAAUAUUACGCUCG | -0.969 |
| UCCCAGCAAUAUUACGUCUA | -2.5 |
| UAUCAGCAAUAUUACGGCCC | -2.13 |
| ACACAGCAAUAUUACGUGCA | -0.241 |
| UUGAAGCAAUAUUACGCACA | -0.575 |
| AAAGAGCAAUAUUACGUGGC | -2.86 |
| UCCCAGCAAUAUUACGGCAA | -0.595 |
| GUUGAGCAAUAUUACGAUCC | -0.364 |
| AGGCAGCAAUAUUACGGUGA | -1.37 |
| AUGAAGCAAUAUUACGCGCC | -0.426 |
| CCGCAGCAAUAUUACGUCGA | -1.06 |
| AUGGAGCAAUAUUACGUAGG | -3.11 |
| AGGUAGCAAUAUUACGGCGC | -0.0707 |
| UUAAAGCAAUAUUACGUGCU | -1.16 |
| GACCAGCAAUAUUACGUCAA | -2.51 |
| CCACAGCAAUAUUACGGGAC | -3.78 |
| AGUGAGCAAUAUUACGGCUU | -2.43 |
| GGGCAGCAAUAUUACGACUC | 0.392 |
| UUGAAGCAAUAUUACGAGGG | -1.6 |
| GACAAGCAAUAUUACGCUUC | -3.75 |
| UUUGAGCAAUAUUACGUGAA | -1.97 |
| GCAUAGCAAUAUUACGUAAU | -2.58 |
| UAGCAGCAAUAUUACGGCUU | -1.1 |
| UCUUAGCAAUAUUACGGCGC | -2.61 |
| ACGAAGCAAUAUUACGGAAG | -2.54 |
| AUAAAGCAAUAUUACGAUAA | -0.405 |
| AAAAAGCAAUAUUACGCAGC | -1.99 |
| CAGAAGCAAUAUUACGAUCC | -2.81 |
| AGUGAGCAAUAUUACGUGAU | -2.87 |
| GAUCAGCAAUAUUACGAUGG | -1.22 |
| CUAGAGCAAUAUUACGAUUA | -2.49 |
